# assay.comment: Solubility test at pH=4 from phosphate buffer pH 6 0.1M, by HPLC
# Assay type: physicochemical
# condition.label: aqueous buffer, thermodynamic from solid; phosphate buffer pH 6 0.1M, HPLC; first figure of the S/pH cell, the pH of the sample is the second
# Protocol: The results for solubility, S, and pH are shown in the table below and are expressed in mg/ml. A phosphate buffer, pH6, 0.1M, was prepared by adding 6.15 ml of 0.1M Na2HPO4 to 43.85 ml of 0.1M NaH2PO4. The solution was made up to 100 ml with filtered water using a Millipore system (trade mark). Reference (Test Product in a Concentration in which the Latter is Soluble and which Acts as an Internal Reference) […] The solubility of the compound was then determined by HPLC under the following conditions: […]
Where a name gives a salt, the structure may show the parent alone.
Record form. Attribute: solubility at 5 min. Fill in for each entry.
Your answer should be a plain number; it is taken to be in µg/mL.

Problem: Give recorded solubility at 5 min. CCCCc1cc2ccccn2c1C(=O)c1ccc(CCCN(CCC)CCC)cc1 [compound 7, hydrochloride]
Result: 8570

Problem: Return solubility at 5 min for the following compound: `CCCNCCCCc1ccc(C(=O)c2c(CCC)cc3ccccn23)cc1.Cl`
Result: 2240

Problem: Fill in solubility at 5 min for record CCCN(CCC)CCCCc1ccc(C(=O)c2c(C)cc3ccccn23)cc1 [compound 15, hydrochloride]
Result: 1560

Problem: Quick one: give measured solubility at 5 min for CCCCN(CCCC)CCCCc1ccc(C(=O)c2c(CCC)cc3ccccn23)cc1 [compound 22, oxalate]
Result: 4080

###

# assay.comment: Solubility test at pH=4 from phosphate buffer pH 6 0.1M, by HPLC
# Type: physicochemical
# condition.label: second figure of the S/pH cell; pH noted for the solubility sample
Counter-ions that a name gives are not always drawn.
measured.quantity: pH (of the solubility sample)
The answer should be written as a number, with no unit following it.

Problem: Let me know recorded pH (of the solubility sample) for CCCCc1cc2ccccn2c1C(=O)c1ccc(CCCN(CCC)CCC)cc1 [compound 7, hydrochloride] , thanks.
Result: 5.65

Problem: Identify pH (of the solubility sample) associated with the molecule CCCN(CC)CCCCc1ccc(C(=O)c2c(C(C)C)cc3ccccn23)cc1 [compound 27, oxalate]
Result: 6.5

Problem: Check the records and state pH (of the solubility sample) for CCCCc1cc2ccccn2c1C(=O)c1ccc(CCCCN(CC)CCC)cc1 [compound 30, hydrochloride]
Result: 5.85

Problem: Respond only with pH (of the solubility sample) recorded for CCCN(CCC)CCCCc1ccc(C(=O)c2c(CC)cc3ccccn23)cc1 [compound 11, hydrochloride]
Result: 5.82

###

Exercise: state measured solubility at 5 min for each of the compounds provided.
# assay.comment: Solubility test at pH=4 from phosphate buffer pH 6 0.1M, by HPLC
# Type: physicochemical
# condition.label: aqueous buffer, thermodynamic from solid; phosphate buffer pH 6 0.1M, HPLC; first figure of the S/pH cell, the pH of the sample is the second
Where a name gives a salt, the structure may show the parent alone.
The figure you give is taken to be in µg/mL; do not add the unit.

Problem: Answer with reported solubility at 5 min of `CCCCc1cc2ccccn2c1C(=O)c1ccc(CCCNCCC)cc1.Cl`
Result: 1780

Problem: Return the recorded solubility at 5 min value; entry: CCCCc1cc2ccccn2c1C(=O)c1ccc(CCCN(CCC)CCCC)cc1 [compound 33, oxalate]
Result: 3880

Problem: Look up solubility at 5 min of CCCc1cc2ccccn2c1C(=O)c1ccc(CCCN(CCC)CCC)cc1 [compound 9, hydrochloride] and report it.
Result: 5290
